Provenance of the data: patent US9988381B2

System: EBC-1 cell
Test: Test III: growth inhibition of non-small cell carcinoma EBC-1 cell (SRB)
Type: cell-based
Conditions: Homo sapiens, EBC-1, 72 h, read-out: Cell proliferation inhibition rate at 200 nM (%)
Catalogue of inhibition at 0.2 µM readings, one per entry.
Express your answer in %, writing the number without its unit.

Answered cases to consult:
1. Cn1cc(-c2ccc3ncc(S(=O)(=O)n4ncc5ncc(-c6cn[nH]c6)cc54)n3c2)cn1	37
2. CC(C)C(=O)Oc1ccc2ncc(S(=O)(=O)n3ncc4ncc(-c5cnn(C)c5)cc43)n2c1	80.6
3. Cn1cc(-c2ccc3ncc(S(=O)(=O)n4ncc5ncc(-c6ccccc6)cc54)n3c2)cn1	91.1

Next compound, inhibition at 0.2 µM to be filled in.
// COc1ccc2ncc(S(=O)(=O)n3ncc4ncc(-c5cnn(C)c5)cc43)n2c1 : inhibition at 0.2 µM value = 91.6

---

Target: c-Met kinase domain recombinant protein (Homo sapiens, UniProt P08581)
Construct: 50 μL diluted solution of c-Met kinase domain recombinant protein in reaction buffer was added to initiate the reaction
Sequence (P08581 1078-1345 limits assumed): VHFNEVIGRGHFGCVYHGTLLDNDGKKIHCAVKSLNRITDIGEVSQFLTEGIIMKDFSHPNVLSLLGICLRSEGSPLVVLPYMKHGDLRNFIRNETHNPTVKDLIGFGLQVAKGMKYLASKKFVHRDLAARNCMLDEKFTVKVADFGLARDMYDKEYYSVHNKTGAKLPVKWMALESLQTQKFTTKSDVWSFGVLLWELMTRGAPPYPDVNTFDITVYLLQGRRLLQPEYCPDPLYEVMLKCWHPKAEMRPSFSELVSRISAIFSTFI
Assay: biochemical
Conditions: read-out: Inhibition rate at 10 μM (%)
Catalogue of inhibition at 10 µM readings, one per entry.
Express your answer in %, writing the number without its unit.

Answered cases to consult:
1) O=S(=O)(c1cnc2ccccn12)n1ncc2ncc(-c3cnn(C4CCN(C5CCCC5)CC4)c3)cc21	57.4
2) CC(C)(C)OC(=O)N1CCC(n2cc(-c3cnc4cnn(S(=O)(=O)c5cnc6ccccn56)c4c3)cn2)CC1	87.5
3) Cn1cc(-c2cnc3cnn(S(=O)(=O)c4ccccc4C#N)c3c2)cn1	72.4

Next compound, inhibition at 10 µM to be filled in.
// Cn1cc(-c2cnc3cnn(S(=O)(=O)c4cnc5ncccn45)c3c2)cn1 : inhibition at 10 µM value = 65.1

---

Target: c-Met kinase domain recombinant protein (Homo sapiens, UniProt P08581)
Construct: 50 μL diluted solution of c-Met kinase domain recombinant protein in reaction buffer was added to initiate the reaction
Assay: biochemical
Details: read-out: Average inhibition rate at 0.1 μM (%)
EXPERIMENTAL_ENDPOINT: inhibition at 0.1 µM (%)
Express your answer in %, writing the number without its unit.

Answered cases to consult:
1. Cn1cc(-c2cnc3cnn(S(=O)(=O)c4cnc5ccc(-c6ccc(C(F)(F)F)cc6)cn45)c3c2)cn1	55.8
2. O=S(=O)(c1cnc2ccc(O)cn12)n1ncc2ncc(-c3ccccc3)cc21	93.9
3. CN(C)C(=O)c1ccc(-c2ccc3ncc(S(=O)(=O)n4ncc5ncc(-c6cnn(C)c6)cc54)n3c2)cc1	78

// CNC(=O)c1ccc(-c2ccc3ncc(S(=O)(=O)n4ncc5ncc(-c6cnn(CCN(C)C)c6)cc54)n3c2)cc1F : inhibition at 0.1 µM value = 73.7

---

Target: c-Met kinase domain recombinant protein (Homo sapiens, UniProt P08581)
Construct: 50 μL diluted solution of c-Met kinase domain recombinant protein in reaction buffer was added to initiate the reaction
Assay: biochemical
Details: read-out: Average inhibition rate at 10 μM (%)
EXPERIMENTAL_ENDPOINT: inhibition at 10 µM (%)
Express your answer in %, writing the number without its unit.

Answered cases to consult:
1) O=C(C1CCCCC1)N1CCC(n2cc(-c3cnc4cnn(S(=O)(=O)c5cnc6ccccn56)c4c3)cn2)CC1 [Example 57]	60.3
2) COc1ccc(-c2ccc3ncc(S(=O)(=O)n4ncc5ncc(-c6cnn(C)c6)cc54)n3c2)cc1 [Example 89]	83.4
3) CC(C)(C)OC(=O)N1CCC(n2cc(-c3cnc4cnn(S(=O)(=O)c5cnc6ncccn56)c4c3)cn2)CC1 [Example 52]	54.5
4) O=C(C1CCCC1)N1CCC(n2cc(-c3cnc4cnn(S(=O)(=O)c5cnc6ccccn56)c4c3)cn2)CC1 [Example 56]	58.9

// Cn1cc(-c2cnc3cnn(S(=O)(=O)c4cccc5nonc45)c3c2)cn1 [Compound 20] : inhibition at 10 µM value = 85.7

// COc1ccccc1-c1ccc2ncc(S(=O)(=O)n3ncc4ncc(-c5cnn(C)c5)cc43)n2c1 [Example 97] : inhibition at 10 µM value = 65.5

// CC(=O)c1ccc(S(=O)(=O)n2ncc3ncc(-c4cnn(C)c4)cc32)cc1 [Compound 13] : inhibition at 10 µM value = 52.6

---

Test system: BaF3/TPR-Met cell
Assay: Test III: growth inhibition of engineered BaF3/TPR-Met cells (MTT)
Type: cell-based
Details: Mus musculus, read-out: Cell proliferation inhibition rate at 1 μM (%); BaF3/TPR-Met, 1 μM, 72 hours
Text: Assays on the growth inhibition of the compounds against engineered BaF3/TPR-Met cell (engineered cell line having TPR-Met fusion protein stably expressed in cytoplasm, persistently activated, Met dependent sensitive cell line; BaF3 cell was purchased from DSMZ, German) were detected using microculture tetrozolium (MTT) staining. […]
EXPERIMENTAL_ENDPOINT: inhibition at 1 µM (%)
Express your answer in %, writing the number without its unit.

// CCN1CCC(n2cc(-c3cnc4cnn(S(=O)(=O)c5cnc6ccccn56)c4c3)cn2)CC1 : inhibition at 1 µM value = 90.9

// CC(C)(C)OC(=O)N1CCC(n2cc(-c3cnc4cnn(S(=O)(=O)c5cnc6ccc(Cl)cn56)c4c3)cn2)CC1 : inhibition at 1 µM value = 91.6

// CC(C)(C)OC(=O)N1CCC(n2cc(-c3cnc4cnn(S(=O)(=O)c5cnc6ccc(C(F)(F)F)cn56)c4c3)cn2)CC1 : inhibition at 1 µM value = 66.5

---

Target: c-Met kinase domain recombinant protein (Homo sapiens)
Construct: 50 μL diluted solution of c-Met kinase domain recombinant protein in reaction buffer was added to initiate the reaction
Test: biochemical
EXPERIMENTAL_ENDPOINT: pIC50
// pIC50: -log10(molar conc.)

Answered cases to consult:
1. Cn1cc(-c2cnc3cnn(S(=O)(=O)c4cnc5ccccn45)c3c2)cn1	8.11
2. COc1ccccc1-c1ccc2ncc(S(=O)(=O)n3ncc4ncc(-c5cnn(C)c5)cc43)n2c1	9.30
3. COc1ccc2ncc(S(=O)(=O)n3ncc4ncc(-c5cnn(C)c5)cc43)n2c1	8.05
4. COc1ccc2ncc(S(=O)(=O)n3ncc4ncc(-c5cccc(C(F)(F)F)c5)cc43)n2c1	7.26

COc1ccc2ncc(S(=O)(=O)n3ncc4ncc(-c5cncc6ccccc56)cc43)n2c1 on c-Met kinase domain recombinant protein (Homo sapiens) gives pIC50 = 6.72

CC(C)N1CC=C(c2cnc3cnn(S(=O)(=O)c4cnc5ccc(-c6cnn(C)c6)cn45)c3c2)CC1 on c-Met kinase domain recombinant protein (Homo sapiens) gives pIC50 = 8.89

O=S(=O)(c1cnc2ccccn12)n1ncc2ncc(-c3cnn(C4CCNCC4)c3)cc21 on c-Met kinase domain recombinant protein (Homo sapiens) gives pIC50 = 8.54

Cn1cc(-c2ccc3ncc(S(=O)(=O)n4ncc5ncc(NC(=O)c6ccccc6)cc54)n3c2)cn1 on c-Met kinase domain recombinant protein (Homo sapiens) gives pIC50 = 8.59

Cn1cc(-c2cnc3cnn(S(=O)(=O)c4cnc5ccc(C(F)(F)F)cn45)c3c2)cn1 on c-Met kinase domain recombinant protein (Homo sapiens) gives pIC50 = 7.47

O=S(=O)(c1cnc2ccccn12)n1ncc2ncc(-c3ccsc3)cc21 on c-Met kinase domain recombinant protein (Homo sapiens) gives pIC50 = 8.34

---

Target: c-Met kinase domain recombinant protein (Homo sapiens)
Construct: 50 μL diluted solution of c-Met kinase domain recombinant protein in reaction buffer was added to initiate the reaction
Test: biochemical
Conditions: read-out: Average inhibition rate at 0.1 μM (%)
Protocol: Enzymatic reaction substrate Poly(Glu,Tyr)4:1 was diluted to 20 μg/mL in potassium ion free PBS (10 mM sodium phosphate buffer, 150 mM NaCl, pH7.2-7.4), microplate was coated with this solution at 125 μL per well, and reacted at 37° C. for 12-16 hours. […] The plate was washed three times with T-PBS. […] Reaction was terminated by adding 50 μL per well of 2M H2SO4, the plate was read at 490 nm using a SPECTRA MAX 190 microplate reader with tunable wavelength. […]
Catalogue of inhibition at 0.1 µM readings, one per entry.
Express your answer in %, writing the number without its unit.

Answered cases to consult:
1. O=C(C1CCCCC1)N1CCC(n2cc(-c3cnc4cnn(S(=O)(=O)c5cnc6ccccn56)c4c3)cn2)CC1	52.4
2. O=S(=O)(c1cnc2ccccn12)n1ncc2ncc(-c3cnn(C4CCNCC4)c3)cc21	73.4
3. Cn1cc(-c2cnc3cnn(S(=O)(=O)c4cnc5ccc(Cl)cn45)c3c2)cn1	62.9
4. COc1ccc2ncc(S(=O)(=O)n3ncc4ncc(-c5cccc(C(F)(F)F)c5)cc43)n2c1	84.5
5. Cn1cc(-c2cnc3cnn(S(=O)(=O)c4c(Cl)nc5sccn45)c3c2)cn1	52.2
6. COc1ccc(-c2cnc3cnn(S(=O)(=O)c4cnc5ccc(O)cn45)c3c2)cc1	100
7. Cn1cc(-c2cnc3cnn(S(=O)(=O)c4ccccc4C#N)c3c2)cn1	9.2
8. Cn1cc(-c2cnc3cnn(S(=O)(=O)c4cnc5ccc(-c6ccc7c(c6)OCO7)cn45)c3c2)cn1	50.6
9. O=S(=O)(c1cnc2cccnn12)n1ncc2ncc(-c3cnn(C4CCNCC4)c3)cc21	64.6
10. O=S(=O)(c1cnc2ccccn12)n1ncc2ncc(-c3ccc(CN4CCOCC4)cc3)cc21	63.2

Cn1cc(-c2cnc3[nH]cc(S(=O)(=O)n4ncc5cccnc54)c3c2)cn1 on c-Met kinase domain recombinant protein (Homo sapiens) gives inhibition at 0.1 µM = 29.1

Cn1cc(-c2cnc3cnn(S(=O)(=O)c4cnc5ccc(-c6ccccc6)cn45)c3c2)cn1 on c-Met kinase domain recombinant protein (Homo sapiens) gives inhibition at 0.1 µM = 68.5

Cn1cc(-c2ccc3ncc(S(=O)(=O)n4ncc5ncc(NC(=O)c6ccccc6)cc54)n3c2)cn1 on c-Met kinase domain recombinant protein (Homo sapiens) gives inhibition at 0.1 µM = 100

Cn1cc(-c2ccc3ncc(S(=O)(=O)n4ncc5ncc(-c6cnn(C7CCNCC7)c6)cc54)n3c2)cn1 on c-Met kinase domain recombinant protein (Homo sapiens) gives inhibition at 0.1 µM = 92.4

Cn1cc(-c2cnc3cnn(S(=O)(=O)c4cnc5ccc(-c6cnn(C7CCNCC7)c6)cn45)c3c2)cn1 on c-Met kinase domain recombinant protein (Homo sapiens) gives inhibition at 0.1 µM = 54.4

O=S(=O)(c1cnc2ccc(-c3cn[nH]c3)cn12)n1ncc2ncc(-c3cn[nH]c3)cc21 on c-Met kinase domain recombinant protein (Homo sapiens) gives inhibition at 0.1 µM = 99.8
